- Tested on: Burkholderia multivorans
- test.details: Inhibition of biofilm formation in Burkholderia multivorans B10 at 0.05 mM incubated for 24 hrs by crystal violet method relative to control
- Format: functional
- run.conditions: B10, 24 h
readout.name: inhibition at 50 µM (%)
Respond with the bare value in %.

inhibition at 50 µM measured on "CCCCCCCCCc1ccccc1C(=O)NS(=O)(=O)c1ccc(F)cc1" = 27

Short answer for "CCCCCCCCCc1ccccc1C(=O)NS(=O)(=O)c1ccc(Br)cc1" : inhibition at 50 µM was 31

For "CCCCCCCCCc1ccccc1C(=O)NS(=O)(=O)c1ccccc1Br" the compound record lists inhibition at 50 µM as 38

Briefly, inhibition at 50 µM measured for "CCCCCCCCCc1ccccc1C(=O)NS(=O)(=O)c1ccc(I)cc1" : 35

Field inhibition at 50 µM (entry "CCCCCCCCCc1ccccc1C(=O)NS(=O)(=O)c1ccc(Cl)cc1" ) reads 47

Measured inhibition at 50 µM of "CCCCCCCCCc1ccccc1C(=O)NS(=O)(=O)c1cccc(Br)c1" : 41
